Parameter AC50: see the listing below.
target: Muscarinic acetylcholine receptor M2 (Homo sapiens, UniProt P08172); format: functional, cell-based; note: assay procedure not described here
Sequence (P08172 whole entry): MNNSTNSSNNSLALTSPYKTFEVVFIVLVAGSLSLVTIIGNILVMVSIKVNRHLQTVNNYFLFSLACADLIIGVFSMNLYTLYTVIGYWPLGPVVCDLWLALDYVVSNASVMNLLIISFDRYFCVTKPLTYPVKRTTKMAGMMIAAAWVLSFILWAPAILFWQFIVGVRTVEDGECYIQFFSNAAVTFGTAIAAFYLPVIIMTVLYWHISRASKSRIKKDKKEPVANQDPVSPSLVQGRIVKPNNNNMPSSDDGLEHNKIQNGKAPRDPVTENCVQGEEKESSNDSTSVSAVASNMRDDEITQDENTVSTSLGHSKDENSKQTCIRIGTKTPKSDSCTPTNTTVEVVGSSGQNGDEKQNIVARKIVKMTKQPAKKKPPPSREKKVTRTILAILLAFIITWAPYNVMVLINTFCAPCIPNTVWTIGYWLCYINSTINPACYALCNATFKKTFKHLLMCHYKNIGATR

Before answering, review these 3 worked examples.
Chemical structure: COc1cc(C)c(/C=C/C(C)=C/C=C/C(C)=C/C(=O)O)c(C)c1C
AC50: > 10 µM
--
Chemical structure: OC[C@H]1O[C@@H](n2cnc3c2NC=NC[C@H]3O)C[C@@H]1O
AC50: > 30 µM
--
Chemical structure: CC(C)[C@H](N)C(=O)OCCOCn1cnc2c(=O)[nH]c(N)nc21
AC50: > 10 µM

Now, please, on to the next molecule.
Ask: If you can, please state the reported AC50 value of O=C(O)c1cccnc1Nc1cccc(C(F)(F)F)c1 .
Result: > 10 µM

###

Dear all, this message contains AC50 results, target or system Vasopressin V1a receptor (Homo sapiens). Note: assay procedure not described here.

Before answering, review these 2 worked examples.
Chemical structure: CO/N=C(\C(=O)N[C@@H]1C(=O)N2C(C(=O)O)=C(CSc3nc(=O)c(=O)[nH]n3C)CS[C@H]12)c1csc(N)n1
Target or test system: Vasopressin V1a receptor (Homo sapiens); note: assay procedure not described here
Sequence (P37288 whole entry): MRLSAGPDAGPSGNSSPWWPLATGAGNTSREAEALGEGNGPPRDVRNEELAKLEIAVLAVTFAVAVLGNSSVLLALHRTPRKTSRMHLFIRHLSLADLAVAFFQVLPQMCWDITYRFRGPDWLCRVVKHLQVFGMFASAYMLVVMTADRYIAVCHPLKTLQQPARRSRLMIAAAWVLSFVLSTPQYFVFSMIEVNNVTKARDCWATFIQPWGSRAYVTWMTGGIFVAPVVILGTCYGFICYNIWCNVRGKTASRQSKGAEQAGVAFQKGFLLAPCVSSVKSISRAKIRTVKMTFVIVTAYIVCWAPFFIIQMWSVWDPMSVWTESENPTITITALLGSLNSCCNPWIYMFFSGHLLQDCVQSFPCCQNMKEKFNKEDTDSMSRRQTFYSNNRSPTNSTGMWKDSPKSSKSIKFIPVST
AC50: > 30 µM
//
Chemical structure: CN(C)C/C=C/C(=O)Nc1cc2c(Nc3ccc(F)c(Cl)c3)ncnc2cc1O[C@H]1CCOC1
Target or test system: Vasopressin V1a receptor (Homo sapiens); note: assay procedure not described here
AC50: > 30 µM

Now, please, on to the next compound.
Ask: If you can, please state the reported AC50 value of NNC(=O)c1ccncc1 .
Result: > 30 µM

###

Dear all, this message contains AC50 results, target or system Mu-type opioid receptor (Homo sapiens, UniProt P35372). Note: assay procedure not described here.

Before answering, review these 2 worked examples.
Molecule: N#Cc1ccc(Oc2ccc3c(c2)COB3O)cc1
AC50: > 30 µM
//
Molecule: O=C(NNCS(=O)(=O)O)c1ccncc1 [METHANIAZIDE]
AC50: > 30 µM

Ask: What AC50 appears in the records for this molecule with Mu-type opioid receptor (Homo sapiens, UniProt P35372)? O=C(O)[C@@H]1C[C@@H](O)CN1
Sequence (P35372 whole entry): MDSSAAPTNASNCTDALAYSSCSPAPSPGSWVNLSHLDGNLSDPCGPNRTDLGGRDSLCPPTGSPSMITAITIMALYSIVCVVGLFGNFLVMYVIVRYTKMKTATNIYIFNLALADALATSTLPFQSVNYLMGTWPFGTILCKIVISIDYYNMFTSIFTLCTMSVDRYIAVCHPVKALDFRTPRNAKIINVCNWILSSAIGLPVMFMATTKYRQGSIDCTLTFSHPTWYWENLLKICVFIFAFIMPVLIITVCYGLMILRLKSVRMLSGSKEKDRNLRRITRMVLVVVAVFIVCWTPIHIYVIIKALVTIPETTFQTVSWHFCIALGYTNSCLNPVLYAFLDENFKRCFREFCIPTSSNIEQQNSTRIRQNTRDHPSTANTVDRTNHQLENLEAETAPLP
Result: > 10 µM

Ask: What AC50 appears in the records for this molecule with Mu-type opioid receptor (Homo sapiens, UniProt P35372)? COc1ccc(OC)c(C(O)C(C)N)c1 (stereo not given)
Result: > 30 µM

Ask: What AC50 appears in the records for this molecule with Mu-type opioid receptor (Homo sapiens, UniProt P35372)? CC(O)(P(=O)(O)O)P(=O)(O)O
Result: > 30 µM

###

Parameter AC50: see the listing below.
biological target: 3',5'-cyclic-AMP phosphodiesterase 4A (Homo sapiens, UniProt P27815); type: functional; note: assay procedure not described here
Sequence (P27815 whole entry): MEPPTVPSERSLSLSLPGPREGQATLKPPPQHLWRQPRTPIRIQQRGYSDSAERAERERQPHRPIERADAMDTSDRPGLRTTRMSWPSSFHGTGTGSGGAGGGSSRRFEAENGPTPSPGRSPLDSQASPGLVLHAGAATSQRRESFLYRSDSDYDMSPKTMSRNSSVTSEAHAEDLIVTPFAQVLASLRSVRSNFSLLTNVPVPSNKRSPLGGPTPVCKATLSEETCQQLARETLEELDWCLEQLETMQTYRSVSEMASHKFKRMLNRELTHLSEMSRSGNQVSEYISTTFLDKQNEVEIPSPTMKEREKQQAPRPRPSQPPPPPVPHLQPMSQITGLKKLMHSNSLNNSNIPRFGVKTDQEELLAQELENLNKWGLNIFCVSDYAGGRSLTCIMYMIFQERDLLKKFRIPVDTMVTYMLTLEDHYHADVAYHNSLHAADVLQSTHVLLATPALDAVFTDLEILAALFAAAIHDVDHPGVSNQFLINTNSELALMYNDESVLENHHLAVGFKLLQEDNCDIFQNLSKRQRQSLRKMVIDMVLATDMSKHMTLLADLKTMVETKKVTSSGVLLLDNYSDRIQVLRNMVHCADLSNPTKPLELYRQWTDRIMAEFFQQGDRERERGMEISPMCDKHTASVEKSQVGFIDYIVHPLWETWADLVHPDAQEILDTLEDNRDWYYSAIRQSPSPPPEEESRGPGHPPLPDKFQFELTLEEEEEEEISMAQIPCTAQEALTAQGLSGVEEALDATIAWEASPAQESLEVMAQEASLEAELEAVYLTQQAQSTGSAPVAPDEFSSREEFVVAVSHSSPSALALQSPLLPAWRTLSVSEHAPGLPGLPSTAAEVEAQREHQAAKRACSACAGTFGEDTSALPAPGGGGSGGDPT

Before answering, review these 5 worked examples.
Compound: Cc1cc2c(cc1S(N)(=O)=O)S(=O)(=O)CCC2
Target or test system: 3',5'-cyclic-AMP phosphodiesterase 4A (Homo sapiens, UniProt P27815); note: assay procedure not described here
AC50: > 30 µM
--
Compound: O=C(CCC/C=C\C[C@@H]1[C@@H](CC[C@@H](O)CCc2ccccc2)[C@H](O)C[C@@H]1O)OCCCCO[N+](=O)[O-] [LATANOPROSTENE BUNOD]
Target or test system: 3',5'-cyclic-AMP phosphodiesterase 4A (Homo sapiens, UniProt P27815); note: assay procedure not described here
AC50: > 30 µM
--
Compound: CCCCc1oc2ccc(NS(C)(=O)=O)cc2c1C(=O)c1ccc(OCCCN(CCCC)CCCC)cc1 [DRONEDARONE]
Target or test system: 3',5'-cyclic-AMP phosphodiesterase 4A (Homo sapiens, UniProt P27815); note: assay procedure not described here
AC50: 16.8 µM
--
Compound: CC(C)C(=O)Oc1ccc(CO)cc1[C@H](CCN(C(C)C)C(C)C)c1ccccc1 [FESOTERODINE]
Target or test system: 3',5'-cyclic-AMP phosphodiesterase 4A (Homo sapiens, UniProt P27815); note: assay procedure not described here
AC50: > 30 µM
--
Compound: CC(OCCN1CCCCCC1)(c1ccccc1)c1ccc(Cl)cc1 (configuration not stated) [SETASTINE]
Target or test system: 3',5'-cyclic-AMP phosphodiesterase 4A (Homo sapiens, UniProt P27815); note: assay procedure not described here
AC50: > 30 µM

Ask: If you can, please state the reported AC50 value of CC(C)C[C@H](NC(=O)[C@@H](O)[C@H](N)Cc1ccccc1)C(=O)O [UBENIMEX] .
Result: > 30 µM

Ask: If you can, please state the reported AC50 value of Clc1ccc(C(Cn2ccnc2)OCc2csc3c(Cl)cccc23)c(Cl)c1 (configuration not stated) [SERTACONAZOLE] .
Result: 17.7 µM
